Every entry's value here was drawn from paper PMC9281569.

Target: HsHCN4 (Homo sapiens, UniProt Q9Y3Q4)
Construct: host or cells: Xenopus laevis oocytes injected with cRNA (pGEMHE vector)
Sequence (Q9Y3Q4 whole entry): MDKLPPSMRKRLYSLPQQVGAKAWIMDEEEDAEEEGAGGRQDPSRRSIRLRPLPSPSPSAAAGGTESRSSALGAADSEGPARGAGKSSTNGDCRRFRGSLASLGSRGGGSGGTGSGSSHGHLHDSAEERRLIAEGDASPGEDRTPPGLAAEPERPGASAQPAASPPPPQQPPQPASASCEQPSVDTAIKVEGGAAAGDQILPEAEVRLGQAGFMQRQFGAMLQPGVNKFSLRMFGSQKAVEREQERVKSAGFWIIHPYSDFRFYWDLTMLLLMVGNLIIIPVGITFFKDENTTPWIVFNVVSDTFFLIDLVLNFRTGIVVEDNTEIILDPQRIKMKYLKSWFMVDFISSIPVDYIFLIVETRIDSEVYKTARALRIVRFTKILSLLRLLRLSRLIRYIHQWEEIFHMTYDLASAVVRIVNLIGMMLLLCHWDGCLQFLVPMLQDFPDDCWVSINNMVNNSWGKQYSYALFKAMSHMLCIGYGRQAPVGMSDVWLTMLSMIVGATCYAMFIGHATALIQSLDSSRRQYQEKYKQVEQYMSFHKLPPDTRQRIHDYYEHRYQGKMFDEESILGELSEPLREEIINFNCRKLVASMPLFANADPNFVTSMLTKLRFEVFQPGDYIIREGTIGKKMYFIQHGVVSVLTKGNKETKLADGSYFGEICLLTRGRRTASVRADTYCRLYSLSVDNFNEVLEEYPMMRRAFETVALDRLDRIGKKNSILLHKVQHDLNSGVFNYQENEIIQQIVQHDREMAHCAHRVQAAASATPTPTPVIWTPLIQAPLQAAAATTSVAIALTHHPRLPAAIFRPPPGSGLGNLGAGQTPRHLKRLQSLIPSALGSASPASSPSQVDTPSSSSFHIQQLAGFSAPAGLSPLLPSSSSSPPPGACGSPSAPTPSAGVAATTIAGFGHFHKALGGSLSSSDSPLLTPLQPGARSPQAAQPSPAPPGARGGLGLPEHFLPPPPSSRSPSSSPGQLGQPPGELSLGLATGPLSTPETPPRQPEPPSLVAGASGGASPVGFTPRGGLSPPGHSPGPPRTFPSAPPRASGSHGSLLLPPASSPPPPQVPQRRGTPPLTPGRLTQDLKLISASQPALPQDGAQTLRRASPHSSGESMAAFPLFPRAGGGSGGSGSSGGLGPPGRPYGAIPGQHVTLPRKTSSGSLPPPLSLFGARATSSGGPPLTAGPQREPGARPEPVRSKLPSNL
Assay: Inhibition of HCN4 currents in Xenopus oocytes, two-electrode voltage clamp
Type: cell-based
Conditions: holding −30 mV, hyperpolarized to −120 mV for 2 s, room temperature, listed as Cs^+
attributeMeasured: pIC50
Give bare numbers, as −log10 of the molar value.

Briefly, pIC50 measured for [Cl-].[Cs+] [Cesium ion, Cesium chloride] : 4.16

====

Molecular target: UniProt A0A8N7TEJ3
Sequence (A0A8N7TEJ3 1-1188): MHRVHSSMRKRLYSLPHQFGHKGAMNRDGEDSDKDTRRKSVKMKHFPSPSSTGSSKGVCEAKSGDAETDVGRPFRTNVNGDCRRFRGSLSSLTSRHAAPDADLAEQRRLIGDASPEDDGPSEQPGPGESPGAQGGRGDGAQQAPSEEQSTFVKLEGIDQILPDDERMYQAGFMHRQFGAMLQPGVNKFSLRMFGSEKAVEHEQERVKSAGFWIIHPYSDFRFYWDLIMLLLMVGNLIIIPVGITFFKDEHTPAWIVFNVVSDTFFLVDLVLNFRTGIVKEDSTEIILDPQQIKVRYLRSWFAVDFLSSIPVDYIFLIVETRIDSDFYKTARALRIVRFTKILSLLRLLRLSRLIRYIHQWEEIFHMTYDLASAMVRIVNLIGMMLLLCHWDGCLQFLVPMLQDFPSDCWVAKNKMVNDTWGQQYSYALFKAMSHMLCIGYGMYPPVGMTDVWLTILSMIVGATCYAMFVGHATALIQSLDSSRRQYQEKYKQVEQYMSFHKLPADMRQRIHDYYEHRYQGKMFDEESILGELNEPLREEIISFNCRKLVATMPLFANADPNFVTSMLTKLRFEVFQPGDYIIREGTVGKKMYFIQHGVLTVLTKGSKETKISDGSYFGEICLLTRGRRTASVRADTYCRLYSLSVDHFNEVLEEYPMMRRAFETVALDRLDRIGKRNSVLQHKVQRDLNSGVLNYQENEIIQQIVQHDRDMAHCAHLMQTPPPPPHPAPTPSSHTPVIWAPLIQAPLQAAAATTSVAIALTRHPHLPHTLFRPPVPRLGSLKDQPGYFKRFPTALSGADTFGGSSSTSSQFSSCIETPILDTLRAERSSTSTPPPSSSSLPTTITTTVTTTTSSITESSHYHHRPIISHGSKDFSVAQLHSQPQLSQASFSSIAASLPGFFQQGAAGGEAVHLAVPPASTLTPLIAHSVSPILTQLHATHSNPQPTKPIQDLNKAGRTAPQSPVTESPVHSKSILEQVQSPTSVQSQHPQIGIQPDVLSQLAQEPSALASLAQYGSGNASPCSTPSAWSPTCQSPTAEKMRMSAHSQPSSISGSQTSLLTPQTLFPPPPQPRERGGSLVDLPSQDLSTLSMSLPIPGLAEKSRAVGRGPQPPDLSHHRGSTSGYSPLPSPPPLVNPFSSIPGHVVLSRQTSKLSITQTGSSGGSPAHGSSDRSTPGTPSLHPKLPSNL
Test: Inhibition of HCN4 currents in Xenopus oocytes, two-electrode voltage clamp
Type: cell-based, zebrafish (Danio rerio)
Conditions: DrHCN4L in Xenopus oocytes; holding −30 mV, hyperpolarized to −120 mV for 2 s; room temperature; read-out: IC50
attributeMeasured: pIC50
One number for each entry, as −log10 of the molar value.

Give pIC50 for all compounds that follow.
1. [Cl-].[Cs+] [Cesium ion, Cesium chloride]
2. CCN(c1ccccc1)c1cc(=NC)n(C)c(C)n1.Cl

Reply:
1: 4.32; 2: 3.22
